Biological target: CYP2D6 (Homo sapiens)
Sequence (P10635 whole entry): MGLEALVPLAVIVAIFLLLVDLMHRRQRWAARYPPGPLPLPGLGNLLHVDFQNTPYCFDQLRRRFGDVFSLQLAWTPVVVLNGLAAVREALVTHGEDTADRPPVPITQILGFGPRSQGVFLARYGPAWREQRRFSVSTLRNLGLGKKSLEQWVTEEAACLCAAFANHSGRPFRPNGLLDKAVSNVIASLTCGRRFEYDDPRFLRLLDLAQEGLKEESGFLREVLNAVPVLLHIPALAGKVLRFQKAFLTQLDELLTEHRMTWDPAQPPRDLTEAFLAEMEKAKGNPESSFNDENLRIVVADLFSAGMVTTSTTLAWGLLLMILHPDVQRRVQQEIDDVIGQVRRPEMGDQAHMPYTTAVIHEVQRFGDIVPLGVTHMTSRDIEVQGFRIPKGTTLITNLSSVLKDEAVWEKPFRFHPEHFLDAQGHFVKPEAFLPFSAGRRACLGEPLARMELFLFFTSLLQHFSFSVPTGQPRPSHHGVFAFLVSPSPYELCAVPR
Assay: In vitro inhibition of human cytochrome P450 enzymes (fluorometric, 3-cyano-7-ethoxycoumarin substrate)
Protocol: In vitro Inhibition of Human Cytochrome P450 Enzymes Solution A: NADPH-Regenerating System To a glass tube on ice were added sequentially: 2% aqueous solution of sodium bicarbonate (10 mL) in NADP^+ (17 mg), glucose-6-phosphate (78 mg) and glucose-6-phosphate dehydrogenase (60 units). To a glass tube on ice were added sequentially: 0.5 M KH2PO4 (pH 7.4, 2.4 mL), water (9 mL), CYP2D6 (480 μL of 1 picomol/microliter), and 3-cyano-7-ethoxycoumarin (5 mM in 2% acetonitrile-water, 120 microliter). […]
Recorded measurements of pIC50, one per entry
# pIC50 = -log10(concentration in molar units)

Before answering, review these 3 worked examples.
{"MOLECULE": "CNC(C)Cc1ccc2c(c1)OCO2 (stereo not shown) [reference compound]", "MEASUREMENT_TARGET": "CYP2D6 (Homo sapiens)", "pIC50": 5.52}
{"MOLECULE": "[2H]C1([2H])Oc2ccc(CC(C)NC)cc2O1 (single isomer, unassigned)", "MEASUREMENT_TARGET": "CYP2D6 (Homo sapiens)", "pIC50": 5.10}
{"MOLECULE": "[2H]C(c1ccc2c(c1)OC([2H])([2H])O2)C([2H])(C)NC([2H])([2H])[2H] (single isomer, unassigned)", "MEASUREMENT_TARGET": "CYP2D6 (Homo sapiens)", "pIC50": 4.52}

API: the following record is the query input.
Request: For CYP2D6 (Homo sapiens), provide pIC50 of [2H]C([2H])([2H])NC(C)Cc1ccc2c(c1)OC([2H])([2H])O2 (single isomer, unassigned) please.
Result: 5.10

* * *

molecular target: CYP2D6 (Homo sapiens); assay: In vitro inhibition of human cytochrome P450 enzymes (fluorometric, 3-cyano-7-ethoxycoumarin substrate); settings: read-out: IC50 (inhibition concentration of CYP2D6); CYP2D6, 3-cyano-7-ethoxycoumarin substrate, 30 minutes at 37° C., fluorescence λex=409 nm, λem=460 nm
REPORTED_PROPERTY: pIC50
# pIC50 = -log10(concentration in molar units)

Request: For N[C@@H]1C[C@H]1c1ccccc1 (racemic) [Tranylcypromine, reference compound] , what is its reported pIC50?
Result: 5.62
